// data source = paper PMC10096180

assay_name: Distribution coefficient (logD), n-octanol-PBS
Type: physicochemical
test_settings: n-octanol-PBS (pH = 7.4) system
test_readout: logD
One number for each entry.

Worked examples follow.
{"compound": "Cc1ccc(C(C)C)cc1.F[P-](F)(F)(F)(F)F.N[C@@H]1[C@@H](OCc2ccccc2)[C@H](OCc2ccccc2)[C@@H](COCc2ccccc2)O[C@H]1c1ccccn1.[Cl][Ru+] [Ru-3a]", "test_readout": "logD", "endpoint_value": 2.72}
{"compound": "Cc1ccc(C(C)C)cc1.F[P-](F)(F)(F)(F)F.N[C@@H]1[C@@H](OC(=O)c2ccccc2)[C@H](OC(=O)c2ccccc2)[C@@H](COC(=O)c2ccccc2)O[C@H]1c1ccccn1.[Cl][Ru+] [Ru-7a]", "test_readout": "logD", "endpoint_value": 1.15}

From here, focus on the item given below.
Form: compound = Cc1ccc(C(C)C)cc1.F[P-](F)(F)(F)(F)F.N[C@@H]1[C@@H](OC(=O)c2ccccc2)[C@H](OC(=O)c2ccccc2)[C@@H](COC(=O)c2ccccc2)O[C@H]1c1ccc2ccccc2n1.[Cl][Ru+] [Ru-7e] ; logD = 2.22
